B1: C10orf62 (parent)
chain: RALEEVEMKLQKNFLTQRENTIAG

Variants of: B1
experiment_summary: protein stability index of a GFP-peptide fusion (GPS, HEK-293T) (PSI 1-6); higher = more stable;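 further: lentivirally expressed fusions sorted by FACS into six bins by GFP to DsRed ratio, PSI derived from sequencing read proportions per bin multiplied by bin number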
measurement_context: c terminus: a fixed tail appended
Hi there, I'd appreciate the recorded protein stability index for every entry that follows.
Form field (numeric): enter value without unit.

// returns reported protein stability index for input E5Y
2.27

Now the same for L3H
4.34

Cool, now G24A
3.4

Again, but for V6S
4.27

# iterate: R1K
3.6

Now give it for K9S too.
3.06

Param item: N20Y
2.64

Same for V6D
4.17

Could you do the same for E5H , please?
3.02

Okay, and E5L ?
2

Next up: T16L
2.79

Another variant: A2Q
4.32

Another variant to check: I22N
3.98

Also check R1C
1.89

Query K12G next
3.77

Same thing, different variant: L10G
4.29

Same read-out for E4M ?
2.63

What do you get for A23H ?
3.19

Same read-out for F14R ?
4.33

Similarly, N20R ?
3.29

Item: T16N
2.83

Next variant: Q11A
3.31

Subsequent entry: L10K
4.35

Another variant: K12Q
3.72

Next variant: A23S
3.42

// same read-out, input: M8N
3.75

Do the same for E5T please
3.02

Another variant to look at: N13I
1.76

Could you do the same for F14W , please?
3.61

Entry to check: L15Y
3.71

Next record, please: R18H
3.96

Continue with R18E
4.29

Okay, and E4D ?
3.44

Try this variant too: E4H
3.18

Same read-out for A2S ?
3.9

Field entry: T21A
3.56

Continue with F14V
3.97

Next up: E19N
3.2

How about this variant: L3C
4.02

Same read-out for R1A ?
3.89

And the next one, N13E ?
3.92

Input T16Q
3.45

Proceed to A2D
4.1

Same thing, different variant: A2W
2.29

Another variant: A23W
2.07

Another variant to look at: L15D
4.69

# iterate: M8Q
4.12

Cool, now T16H
3.44

Now consider L10F and answer again.
3.37

Same question for A23E please.
4.28

What do you have for E7T ?
2.6

And the next one, R18Q ?
3.85

Please give the result for F14H too.
4.47

Again, but for L15M
3.62

Try the variant K12H
3.43

Cool, now R18K
3.74

How about L10H ?
4

Try this variant too: A23F
2.66

And then K9G , what is it?
3.75

Same question, E19F this time
1.86

Proceed to E19D
3.78

Follow-up item: L3M
3.86

Now this one: T21P
3.7

Request: L10Q
3.22

Same thing, different variant: E7Y
2.38

Now try Q11P .
3.9

Try this variant next: N20E
4.17

Another: L15H
3.85

Let us now turn to E4G
4.05

# iterate: K9R
2.31

And L3D ?
4.8

Next variant up: K12P
4.14

Try K9C next.
2.41

Field entry: N13V
3

L15Q ?
4.84

# iterate: T21Q
3.85

Let us now turn to E19L
2.04

Cool, now T21L
3.2

Do the same for A2C please
3.27

Request: F14P
4.66

Let us now turn to K9F
2.24

Same lookup for R1L , please.
2.54

Proceed to N20D
3.96

Param item: E4S
3.64

Note, next up: L15P
3.89

What would you report for K12Y ?
2.3

Next variant: G24Y
2.18

Same for T16S
3.64

Then this variant: I22L
3.21

Request: R1V
3.1

Entry F14C please
4.29

Origin of the recorded values: the supplement of paper PMC10567573
